The entries below are paired with their reported protein stability index.
B1: TMEM192 (parent)
chain: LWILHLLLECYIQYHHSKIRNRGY

Variants of: B1
EXPERIMENTAL PROTOCOL: protein stability index of a GFP-peptide fusion (GPS, HEK-293T) (PSI 1-6); higher = more stable;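 note: lentivirally expressed fusions sorted by FACS into six bins by GFP to DsRed ratio, PSI derived from sequencing read proportions per bin multiplied by bin number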
CONDITION: c terminus: a fixed tail appended
Write the number on its own, no unit after it.

> print(dat)
   mutant         measurement.name  result
1     L1M  protein stability index    1.48
2     E9N  protein stability index    1.44
3    H16F  protein stability index    2.36
4     L6M  protein stability index    1.65
5     H5C  protein stability index    1.66

INPUT: Provide only the value of recorded protein stability index for H16N
OUTPUT: 1.3

INPUT: Provide only the value of recorded protein stability index for G23C
OUTPUT: 2.04

INPUT: Provide only the value of recorded protein stability index for Y24M
OUTPUT: 2.28

INPUT: Provide only the value of recorded protein stability index for W2A
OUTPUT: 2.2

INPUT: Provide only the value of recorded protein stability index for K18D
OUTPUT: 3.53

INPUT: Provide only the value of recorded protein stability index for H15Q
OUTPUT: 2.24
